meta.source: ChEMBL document CHEMBL1201862

- Tested on: MCF7
- Assay notes: NCI tumour cell line growth inhibition, 48 h
Activity calls are given as the source filed them. Rule as the data show it: active = GI50 up to about 1.1 µM and inactive = higher.
Measure: GI50

For `CCC(CC)C(=O)OC[n+]1ccc(-c2c(COC(=O)NC(C)C)c(COC(=O)NC(C)C)c3n2CCC3)cc1` on MCF7, measured GI50 was > 100 µM (inactive)

For CC1=NN(c2nc(N)nc(/C(C#N)=C\C3COc4ccccc4C3=O)n2)C(C)(C)C1 (centres undefined) on MCF7, measured GI50 was 32.4 µM (inactive)

For `Cc1nc2ccc(F)cc2c2c1CCN2c1ccccc1` on MCF7, measured GI50 was 28.1 µM (inactive)

For CC(=O)OCC12C(=O)C[C@@H](C)C3(CC(c4ccoc4)OC3=O)C1CCC(OC(C)=O)C21CO1 (some centres undefined) on MCF7, measured GI50 was > 100 µM (inactive)

For OCc1ccc2c(c1)CC1(Cc3ccc(/C=N/O)cc3C1)C2 (centres undefined) on MCF7, measured GI50 was 2 µM (inactive)

For CCN1CCC(O)(c2ccc(Oc3ccc(C)cc3)cc2)C(C(=O)c2ccc(Oc3ccc(C)cc3)cc2)C1 (centres undefined) on MCF7, measured GI50 was 2.42 µM (inactive)

For CC(=O)OC[C@]12CCC3[C@@]4(C)CCCC(C)(C)C4CC[C@@]3(C)C1CC(C1=CC(=O)OC1O)O2 (some centres undefined) on MCF7, measured GI50 was 0.726 µM (active)

For `CCOC(=O)Cc1[nH]c(C(=O)c2ccccc2)cc1C(=O)c1ccccc1` on MCF7, measured GI50 was > 10 µM (inactive)

Note: attention shifts to another entry.
For `CC(C)C(=O)OCN(C)c1nc(N(C)COC(=O)C(C)C)nc(N(C)COC(=O)C(C)C)n1` on MCF7, measured GI50 was 35.6 µM (inactive)

* * *

- Tested on: DMS-114
- Assay notes: NCI tumour cell line growth inhibition, 48 h
The source made the active and inactive calls. Rule as the data show it: active = GI50 up to about 1.1 µM and inactive = higher.
Measure: GI50

Recorded results for 8 compounds are shown here.
What the record says about CN1CN(C2OC(CO)C(O)C2O)c2nc(N)[nH]c(=O)c21 (stereo not drawn) : GI50 is > 100 µM (inactive)

What the record says about O=C1CC2C(=O)N(Cc3ccccc3)C1C(S(=O)(=O)c1ccccc1)C2S(=O)(=O)c1ccccc1 (stereo not drawn) : GI50 is 1.29 µM (inactive)

What the record says about COc1ccc(CC2NCCc3c2[nH]c2ccccc32)cc1 (stereo not drawn) : GI50 is 33.1 µM (inactive)

What the record says about `COc1cc(OC)c(OC)cc1/C=C\c1ccnc2ccccc12` : GI50 is 0.649 µM (active)

What the record says about CC1(Cl)C(=O)NC(=O)N([C@H]2C[C@H](O)[C@@H](CO)O2)C1N=[N+]=[N-] (stereo partly drawn) : GI50 is > 94.8 µM (inactive)

What the record says about CC(=O)CCC1(c2ccccc2)OC(=O)C(C#N)=C1c1ccccc1 (stereo not drawn) : GI50 is > 100 µM (inactive)

What the record says about `Cc1ccc(S(=O)(=O)N/N=C\c2c3ccccc3[n+](C)c3ccccc23)cc1` : GI50 is 24.9 µM (inactive)

What the record says about [O-][S+]1c2ccccc2N=C(c2ccc(Cl)cc2)CC1c1cccs1 (stereo not drawn) : GI50 is 14.6 µM (inactive)

Others:
What the record says about OC(CBr)C(O)C(O)C(O)CBr (stereo not drawn) : GI50 is 42.4 µM (inactive)

What the record says about CC(=O)O/C=C(/C=C/OC(C)=O)C(C/C=C(\C)C#CC=C(C)C)OC(C)=O (stereo not drawn) : GI50 is 19 µM (inactive)

What the record says about `CC(C)OP(=O)(OC(C)C)c1nc(-c2ccccc2)n(-c2ccc([N+](=O)[O-])cc2)n1` : GI50 is > 100 µM (inactive)

What the record says about `COCN1COCN(C)C1=O` : GI50 is > 100 µM (inactive)

What the record says about `O=[N+]([O-])c1nccn1COCCI` : GI50 is > 100 µM (inactive)

What the record says about `c1cnc2nc3n(c2c1)CSC3` : GI50 is > 100 µM (inactive)

What the record says about `Cc1cccc(C)c1NC(=O)CCC(=O)NNC(=O)c1cc(O)c2ccccc2c1` : GI50 is 21.8 µM (inactive)

What the record says about `CCOC(=O)C(=C=C=C(c1ccccc1)c1ccccc1)C(=O)OCC` : GI50 is 18.5 µM (inactive)

What the record says about `O=c1[nH]c(C2CCCCC2)nc2ccc(Cl)cc12` : GI50 is > 100 µM (inactive)

What the record says about COC(=O)C1C2C=CC(C2)C1(C(=O)OC)[S+]([O-])CC12CCC(CC1O)C2(C)C (stereo not drawn) : GI50 is 85.7 µM (inactive)

What the record says about C=C1C(=O)C23C(O)C1CC[C@H]2C12CCCC(C)(COC(C)=O)[C@H]1[C@H](O)[C@]3(O)OC2 (stereo partly drawn) : GI50 is 1.87 µM (inactive)

What the record says about `C/C(CCn1[nH]c(=O)ccc1=O)=N\O` : GI50 is > 100 µM (inactive)

What the record says about CC(=O)O[C@H]1C=CC(=O)C(C)CC1C (stereo partly drawn) : GI50 is > 100 µM (inactive)

What the record says about COc1cccc(N2C(=O)[C@H]3[C@H]4CC(C(C)(C)C)CC[C@H]4c4c([nH]c5ccccc45)[C@H]3C2=O)c1 (stereo partly drawn) : GI50 is 17.7 µM (inactive)

What the record says about `Cc1ccc(Nc2nc3c(s2)C(=O)c2ccccc2C3=O)cc1` : GI50 is 1.52 µM (inactive)

* * *

- System: NCI-H460
- Assay notes: NCI tumour cell line growth inhibition, 48 h
The source made the active and inactive calls. No stated cut-off is given here; in the data, active = GI50 up to about 1.1 µM and inactive = higher.
Outcomes you can answer with include only these: active, inactive

For this compound, state the assay outcome: CCOC(=O)c1csc(NC(=O)C(C)N2CCCC2)n1 (stereo unspecified)
inactive

For this compound, state the assay outcome: `Brc1nc2c3ccccc3ncn2c1Br`
inactive

For this compound, state the assay outcome: `CCOC(=O)CC1=Nc2ccccc2SC1`
inactive

For this compound, state the assay outcome: `C/C(CCn1[nH]c(=O)ccc1=O)=N\O`
inactive

For this compound, state the assay outcome: COc1cc2cc(C(=O)N3CC(CCl)c4c3cc(NCCN)c3ccccc43)[nH]c2c(OC)c1OC (stereo unspecified)
active

For this compound, state the assay outcome: `CN1CCC2(CC1)/C(=N/C1CCCCC1)NC(=S)N2c1ccccc1`
inactive

For this compound, state the assay outcome: `Cc1ccc(P(c2ccc(C)cc2)c2ccc(C)cc2)cc1`
inactive

For this compound, state the assay outcome: `S=C1NCCN1C(=S)Nc1ccccc1`
inactive

Others:
For this compound, state the assay outcome: [O-][S+]1c2ccccc2N=C(c2ccc(Cl)cc2)CC1c1cccs1 (stereo unspecified)
inactive

For this compound, state the assay outcome: `CN(C)CCn1c(=O)c2ccc(NCCCN(C)CCCNc3ccc4c(=O)n(CCN(C)C)c(=O)n5c6ccccc6c(=O)c3c45)c3c(=O)c4ccccc4n(c1=O)c23`
active

For this compound, state the assay outcome: C[N+]12C=CC=C1C(N1CCCC1)c1sc(-c3ccc(Cl)cc3)cc12 (stereo unspecified)
inactive

* * *

- System: SF-295
- Assay notes: NCI tumour cell line growth inhibition, 48 h
Active and inactive are the calls of the source. Cut-off read from the data, not from the text of the source: active = GI50 up to about 1.1 µM and inactive = higher.
Overview of reported GI50 across a group of compounds:

What the record says about O=C(CCN1CCN2c3ccccc3CCC2C1)c1ccc(F)cc1 (stereo not drawn) : GI50 is > 100 µM (inactive)

What the record says about `Cc1nc2ccc(F)cc2c2c1CCN2c1ccccc1` : GI50 is 11.7 µM (inactive)

What the record says about `O=C1C2CCN(CC2)C1(CO)CO` : GI50 is > 100 µM (inactive)

* * *

- System: EKVX
- Assay notes: NCI tumour cell line growth inhibition, 48 h
Active and inactive are the calls of the source. Cut-off read from the data, not from the text of the source: active = GI50 up to about 1.1 µM and inactive = higher.
Overview of reported GI50 across a group of molecules:

What the record says about COC(=O)c1c2c(cc3c1CC1(Cc4cc5c(c(C(C)=O)c4C1)CCCC5)C3)CCCC2 (configuration not stated) : GI50 is > 100 µM (inactive)

Others:
What the record says about `C=CCOc1ccc(N)c([N+](=O)[O-])c1` : GI50 is > 100 µM (inactive)

What the record says about `COC1=C(OC)C(=O)C(Cc2c(-c3ccccc3)nc3sc(Cl)cn23)=C(C)C1=O` : GI50 is 20.7 µM (inactive)

What the record says about COc1ccc2c(c1)CCCN1Cc3cc(OC)c(OC)cc3CC21 (configuration not stated) : GI50 is > 100 µM (inactive)

What the record says about C=COC(=O)N1C2CCCC(Cl)(C(C)=O)C1CC2 (configuration not stated) : GI50 is > 100 µM (inactive)

What the record says about `O=c1cc(-c2ccccc2)nc2[nH]ccn12` : GI50 is > 10 µM (inactive)

What the record says about CC(C)N(C(=O)C12C3C4C5C3C1(C(=O)O)C5C42)C(C)C (configuration not stated) : GI50 is > 100 µM (inactive)
